Test system: Botrytis cinerea
Assay: Fungicidal activity against benzimidazole-resistant Botryotinia fuckeliana at 6.2 ppm after 48 hr by poisoned food technique
Format: functional
Parameter: Activity. Scope: all listed entries.
EXPERIMENTAL_READOUT: Activity

> print(dat)
                         input.smiles  test.result
 1              CCO/N=C/Nc1c(C)cccc1C         <25%
 2          CCO/N=C/Nc1cc(Cl)cc(Cl)c1         <25%
 3                  CCO/N=C/Nc1ccccc1         <25%
 4        CCO/N=C/Nc1cc(Cl)c(Cl)cc1Cl         <25%
 5            CCO/N=C/Nc1cc(Cl)ccc1Cl         <25%
 6               CCO/N=C/Nc1ccccc1OCC         <25%
 7                CCO/N=C/Nc1ccccc1Cl         <25%
 8              CCO/N=C/Nc1cccc(CC)c1         <25%
 9  CCO/N=C/Nc1cc(Cl)c(OCC)c(Cl)c1OCC         <25%
10              CCO/N=C/Nc1ccc(Cl)cc1         <25%
11              CCO/N=C/Nc1cccc(Cl)c1         <25%
12       CCO/N=C/Nc1cc(Cl)c(C)c(Cl)c1         <25%
13                CCO/N=C/Nc1ccccc1CC          26%
14          CCO/N=C/Nc1cc(OCC)ccc1OCC          70%
15       CCO/N=C/Nc1cc(C)c(OCC)c(C)c1          50%
